Answer each item with its documented pIC50.
Target: MMP-3 (Homo sapiens, UniProt P08254)
Construct: Truncated Prostromelysin-257 was expressed in a soluble form in E.coli; made in house; host or cells: E. coli
Sequence (P08254 100-274 limits assumed): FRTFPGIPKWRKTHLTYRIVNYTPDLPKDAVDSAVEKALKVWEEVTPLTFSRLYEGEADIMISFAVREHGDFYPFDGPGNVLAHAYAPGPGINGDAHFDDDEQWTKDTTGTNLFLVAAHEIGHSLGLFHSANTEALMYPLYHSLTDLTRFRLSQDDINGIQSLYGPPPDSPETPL
Assay: Primary Thiopeptilide MMP-3 Inhibition Assay
Assay type: biochemical
Details: pH 6.5; 13 nM stromelysin; x (n) = average of n determinations; read-out: MMP-3 Thiopep. IC50
Answers are plain numbers, as −log10 of the molar value.

Observe how each entry below is paired with its result.
| compound | value-measured |
| --- | --- |
| O=C(CC(CSc1ccc(F)cc1)C(=O)O)c1ccc(-c2ccc(Cl)cc2)cc1 (centres unmarked) [Example 208] | 6.85 |
| CC(C)(C)C(=O)SCC(CC(=O)c1ccc(-c2ccc(Cl)cc2)cc1)C(=O)O (single isomer, unassigned) [Example 194] | 6.94 |

Provide pIC50 for all items below, preserving their order.
1. O=C(CC(CCCCCCc1ccccc1)C(=O)O)c1ccc(-c2ccc(Cl)cc2)cc1 (centres unmarked) [Example 181]
2. CC(C)CC(CC(=O)c1ccc(-c2ccc(Cl)c(Cl)c2)cc1)C(=O)O (centres unmarked) [Example 64]
3. O=C(CC(C/C=C/c1ccccc1)C(=O)O)c1ccc(-c2ccc(Cl)cc2)cc1 (centres unmarked) [Example 183]
4. COC(=O)c1ccccc1S[C@H]1CC[C@H](C(=O)c2ccc(-c3ccc(Cl)cc3)cc2)[C@H]1C(=O)O (relative stereo) [Example 298]
5. O=C(CC(CC#Cc1ccccc1)C(=O)O)c1ccc(-c2ccc(Cl)cc2)cc1 (centres unmarked) [Example 189]

Result ::
[6.48, 6.52, 6.57, 7.30, 6.28]

Provide pIC50 for all items below, preserving their order.
1. O=C(CC(CCCc1ccccc1)C(=O)O)c1ccc(-c2cccs2)cc1 (centres unmarked) [Example 80]
2. O=C(O)Cc1ccc(SCC(CC(=O)c2ccc(-c3ccc(Cl)cc3)cc2)C(=O)O)cc1 (centres unmarked) [Example 238]
3. CC(C)(C)C(=O)SCC(CC(=O)c1ccc(-c2ccc(Cl)cc2)cc1)C(=O)O (centres unmarked) [Example 193]
4. N#Cc1ccc(-c2ccc(C(=O)CC(CCc3ccccc3)C(=O)O)cc2)cc1 (centres unmarked) [Example 125]

Result ::
1: 6.33; 2: 6.04; 3: 6.82; 4: 6.98

---

Target: MMP-3 (Homo sapiens, UniProt P08254)
Construct: Truncated Prostromelysin-257 was expressed in a soluble form in E.coli; made in house; host or cells: E. coli
Assay: Primary Thiopeptilide MMP-3 Inhibition Assay
Format: biochemical
Settings: pH 6.5; 13 nM stromelysin; x (n) = average of n determinations; read-out: MMP-3 Thiopep. IC50
Rule for this label: met means IC50 is less than 400 nM; not met means IC50 is at least 400 nM.

| compound | class |
| --- | --- |
| O=C(CC(CCCc1ccccc1)C(=O)O)c1ccc(-c2ccc(O)cc2)cc1 (stereo not drawn) | not met |
| CC(C)CC(CC(=O)c1ccc(-c2ccc(I)cc2)cc1)C(=O)O (stereo not drawn) | met |
| O=C(CC(CCCc1ccccc1)C(=O)O)c1ccc(-c2ccc(Cl)cc2)s1 (stereo not drawn) | not met |
| COc1cccc(SCC(CC(=O)c2ccc(-c3ccc(Cl)cc3)cc2)C(=O)O)c1 (stereo not drawn) | met |
| CCCCCc1ccc(-c2ccc(C(=O)CC(CC(C)C)C(=O)O)cc2)cc1 (stereo not drawn) | not met |

Query :: Decide: IC50 of O=C(CC(CCc1ccccc1)C(=O)O)c1ccc(-c2ccc([N+](=O)[O-])cc2)cc1 (stereo not drawn) strictly below 400 nM?
Result :: met

Query :: What do you get for COc1ccc(SCC(CC(=O)c2ccc(-c3ccc(Cl)cc3)cc2)C(=O)O)cc1 (stereo not drawn) ?
Result :: not met

Query :: What do you get for O=C(O)[C@@H]1[C@@H](C(=O)c2ccc(-c3ccc(Cl)cc3)cc2)CC[C@H]1Sc1ccccc1 (relative stereo) ?
Result :: met

Query :: What do you get for CC(C)(C)OC(=O)Nc1ccc(-c2ccc(C(=O)CC(CCCc3ccccc3)C(=O)O)cc2)cc1 (stereo not drawn) ?
Result :: not met

Query :: What do you get for CNC(=O)c1ccccc1SCC(CC(=O)c1ccc(-c2ccc(Cl)cc2)cc1)C(=O)O (stereo not drawn) ?
Result :: met

---

Biological target: MMP-3 (Homo sapiens, UniProt P08254)
Construct: Truncated Prostromelysin-257 was expressed in a soluble form in E.coli; made in house; host or cells: E. coli
Experiment: Automated MMP Profiling Assay, MMP-3 fluorogenic
Assay type: biochemical
Conditions: 96-well automated, P218
readout-name: pIC50
Numbers only, as −log10 of the molar value.

| compound | pIC50 |
| --- | --- |
| O=C(O)[C@H]1[C@H](CN2C(=O)c3ccc([N+](=O)[O-])cc3C2=O)CC[C@@H]1C(=O)c1ccc(-c2ccc(Cl)cc2)cc1 (relative stereo) | 8.08 |
| O=C(O)[C@H]1[C@H](COCc2ccccc2)CC[C@@H]1C(=O)c1ccc(-c2ccc(Cl)cc2)cc1 (relative stereo) | 7.57 |
| O=C(CC(CCN1C(=O)c2cccc(O)c2C1=O)C(=O)O)c1ccc(-c2ccc(Cl)cc2)cc1 (stereo not shown) | 7.92 |
| O=C(c1ccc(-c2ccc(Cl)cc2)cc1)[C@H]1CCN(C(=O)NCc2ccccc2)[C@@H]1C(=O)O | 7.31 |
| O=C(O)[C@H]1[C@H](CON2C(=O)c3ccccc3C2=O)CC[C@@H]1C(=O)c1ccc(-c2ccc(Cl)cc2)cc1 (relative stereo) | 7.82 |

Provide pIC50 for all items below, preserving their order.
1. O=C(CC(CCN1C(=O)c2cc3c(cc2C1=O)OCO3)C(=O)O)c1ccc(-c2ccc(Cl)cc2)cc1 (stereo not shown)
2. O=C(O)c1ccc(CCC(CC(=O)c2ccc(-c3ccc(Cl)cc3)cc2)C(=O)O)cc1 (stereo not shown)
3. CCCCCCOc1ccc(-c2ccc(C(=O)CC(CCc3ccccc3)C(=O)O)cc2)cc1 (stereo not shown)
4. O=C(CC(CCN1C(=O)c2cccc3c(Br)ccc(c23)C1=O)C(=O)O)c1ccc(-c2ccc(Cl)cc2)cc1 (stereo not shown)

Result ::
8.17
6.23
6.94
6.52

---

Target: MMP-9 (Homo sapiens, UniProt P14780)
Construct: from tissue; host or cells: human polymorphonuclear leukocytes (PMN) from whole blood (New York Blood Center), PMA-stimulated supernatant
Sequence (P14780 107-707 limits assumed): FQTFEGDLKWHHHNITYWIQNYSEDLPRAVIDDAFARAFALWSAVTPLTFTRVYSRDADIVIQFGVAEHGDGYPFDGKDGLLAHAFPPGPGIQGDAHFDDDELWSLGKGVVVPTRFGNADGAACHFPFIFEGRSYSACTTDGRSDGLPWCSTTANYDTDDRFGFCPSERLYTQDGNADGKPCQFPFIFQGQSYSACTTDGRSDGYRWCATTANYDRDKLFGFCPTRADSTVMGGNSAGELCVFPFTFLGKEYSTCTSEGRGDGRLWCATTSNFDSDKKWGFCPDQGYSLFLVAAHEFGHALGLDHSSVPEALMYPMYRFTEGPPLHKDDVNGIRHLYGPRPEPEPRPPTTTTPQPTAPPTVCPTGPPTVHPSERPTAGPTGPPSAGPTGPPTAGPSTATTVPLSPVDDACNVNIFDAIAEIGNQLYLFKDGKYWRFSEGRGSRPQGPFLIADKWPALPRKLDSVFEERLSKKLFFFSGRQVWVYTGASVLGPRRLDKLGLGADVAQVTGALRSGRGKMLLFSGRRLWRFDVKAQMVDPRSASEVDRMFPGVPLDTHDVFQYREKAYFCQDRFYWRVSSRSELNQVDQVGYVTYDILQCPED
Assay: Thiopeptilide MMP-9 Inhibition Assay
Format: biochemical
Settings: pH 6.5; x (n) = average of n determinations; read-out: MMP-9: Thiopep. IC50
readout-name: pIC50
Numbers only, as −log10 of the molar value.

Provide pIC50 for all items below, preserving their order.
1. O=C(CC(CCOCc1ccccc1)C(=O)O)c1ccc(-c2ccc(Cl)cc2)cc1 (centres unmarked)
2. COc1ccc(CCC(CC(=O)c2ccc(-c3ccc(Cl)cc3)cc2)C(=O)O)cc1 (centres unmarked)
3. O=C(CC(CSCCCc1ccccc1)C(=O)O)c1ccc(-c2ccc(Cl)cc2)cc1 (centres unmarked)
4. Cc1ccccc1S[C@H]1CC[C@@H](C(=O)c2ccc(-c3ccc(Cl)cc3)cc2)[C@H]1C(=O)O (relative stereo)
5. O=C(CC(CSc1ccccc1O)C(=O)O)c1ccc(-c2ccc(Cl)cc2)cc1 (centres unmarked)
6. COc1cccc(CCC(CC(=O)c2ccc(-c3ccc(Cl)cc3)cc2)C(=O)O)c1 (centres unmarked)
7. O=C(CC(CSc1ccc(O)cc1)C(=O)O)c1ccc(-c2ccc(Cl)cc2)cc1 (centres unmarked)

Result ::
1: 6.67; 2: 5.82; 3: 6.54; 4: 5.74; 5: 6.52; 6: 5.89; 7: 6.67

Provide pIC50 for all items below, preserving their order.
1. O=C(CC(CSC1CCCCC1)C(=O)O)c1ccc(-c2ccc(Cl)cc2)cc1 (centres unmarked)
2. O=C(CC(C/C=C/c1ccccc1)C(=O)O)c1ccc(-c2ccc(Cl)cc2)cc1 (centres unmarked)
3. O=C(CC(CCCc1ccccc1)C(=O)O)c1ccc(-c2ccc(O)cc2)cc1 (centres unmarked)
4. CN(C)c1ccc(-c2ccc(C(=O)CC(CCCc3ccccc3)C(=O)O)cc2)cc1 (centres unmarked)

Result ::
5.66
6.15
5.85
6.74

Provide pIC50 for all items below, preserving their order.
1. CCc1ccc(-c2ccc(C(=O)CC(CC(C)C)C(=O)O)cc2)cc1 (centres unmarked)
2. O=C(CC(CSc1ccccc1)C(=O)O)c1ccc(-c2ccc(Cl)cc2)cc1 (centres unmarked)
3. Cc1ccccc1SCC(CC(=O)c1ccc(-c2ccc(Cl)cc2)cc1)C(=O)O (centres unmarked)

Result ::
[5.51, 6.36, 6.70]

---

Target: MMP-9 (Homo sapiens, UniProt P14780)
Construct: from tissue; host or cells: human polymorphonuclear leukocytes (PMN) from whole blood (New York Blood Center), PMA-stimulated supernatant
Assay: Automated MMP Profiling Assay, MMP-9 fluorogenic
Format: biochemical
Conditions: 96-well automated, P218
Method: Briefly, polymorphonuclear leukocytes (PMN) preparations were isolated as described above from 3 or more units of freshly drawn whole blood obtained from the New York Blood Center (New York, N.Y.). […] The protein content associated with material was determined with a micro-BCA assay (Pierce, Rockford, Ill.), lyophilized and reconstituted to a desired working concentration (100 μg/ml). […]
readout-name: IC50 (µM)
Numbers only, in µM.

Provide IC50 for all items below, preserving their order.
1. CCN(CC)C(=O)c1cccc(CCC(CC(=O)c2ccc(-c3ccc(Cl)cc3)cc2)C(=O)O)c1 (centres unmarked)
2. O=C(O)[C@H]1[C@@H](SCc2ccccc2)CC[C@@H]1C(=O)c1ccc(-c2ccc(Cl)cc2)cc1 (relative stereo)
3. COCCCc1ccc(-c2ccc(C(=O)CC(CCCc3ccccc3)C(=O)O)cc2)cc1 (centres unmarked)
4. O=C(CC(CN1C(=O)c2ccccc2C1=O)C(=O)O)c1ccc(-c2ccc(Cl)cc2)cc1 (centres unmarked)
5. O=C(O)[C@H]1[C@H](CN2C(=O)c3ccc([N+](=O)[O-])cc3C2=O)CC[C@@H]1C(=O)c1ccc(-c2ccc(Cl)cc2)cc1 (relative stereo)

Result ::
0.029
0.38
1.08
0.275
0.00097
